molecular target: T1, HLA-B*07:02 (human); test: UV-exchange b2m ELISA; exchange-yield grade
T1 construct: also called peptide-receptive MHC molecules
valueKind: peptide exchange yield

- binder: "IPGPAQSTI"
  valueKind: "peptide exchange yield"
  result: "20 to 50%"
- binder: "SPTFHLTL"
  valueKind: "peptide exchange yield"
  result: "50 to 75%"
- binder: "FPFQPGSV"
  valueKind: "peptide exchange yield"
  result: "50 to 75%"
- binder: "KPSESIYSAL"
  valueKind: "peptide exchange yield"
  result: "50 to 75%"
- binder: "LPYGPGSEAAAF"
  valueKind: "peptide exchange yield"
  result: "50 to 75%"
- binder: "HPDPVGPGL"
  valueKind: "peptide exchange yield"
  result: "20 to 50%"
- binder: "MPSLSEAMTSF"
  valueKind: "peptide exchange yield"
  result: "50 to 75%"
- binder: "SPNKGTLSV"
  valueKind: "peptide exchange yield"
  result: "50 to 75%"
- binder: "LPEISTRTM"
  valueKind: "peptide exchange yield"
  result: "20 to 50%"
- binder: "SPMHDRWTF"
  valueKind: "peptide exchange yield"
  result: "50 to 75%"
- binder: "YPRTITPGM"
  valueKind: "peptide exchange yield"
  result: "50 to 75%"
- binder: "LPLDTSTTL"
  valueKind: "peptide exchange yield"
  result: "50 to 75%"
- binder: "SPGAQRTFFQL"
  valueKind: "peptide exchange yield"
  result: "50 to 75%"
- binder: "APRWFPQPTVV"
  valueKind: "peptide exchange yield"
  result: "50 to 75%"
- binder: "SPSPVTSTL"
  valueKind: "peptide exchange yield"
  result: "50 to 75%"
- binder: "RPRSPAGQVA"
  valueKind: "peptide exchange yield"
  result: "50 to 75%"
- binder: "LPSVSGVKTTF"
  valueKind: "peptide exchange yield"
  result: "20 to 50%"
- binder: "SPAPLKLSRTPA"
  valueKind: "peptide exchange yield"
  result: "20 to 50%"
- binder: "VPDQPHPEI"
  valueKind: "peptide exchange yield"
  result: "50 to 75%"
- binder: "YPLRGSSIF"
  valueKind: "peptide exchange yield"
  result: "50 to 75%"
- binder: "SPMDTFLLI"
  valueKind: "peptide exchange yield"
  result: "20 to 50%"
- binder: "SPRENFPDTL"
  valueKind: "peptide exchange yield"
  result: "50 to 75%"
- binder: "LPYFREFSM"
  valueKind: "peptide exchange yield"
  result: "50 to 75%"
- binder: "RVRSRISNL"
  valueKind: "peptide exchange yield"
  result: "50 to 75%"
- binder: "RVEEVRALL"
  valueKind: "peptide exchange yield"
  result: "50 to 75%"
- binder: "APTEDLKAL"
  valueKind: "peptide exchange yield"
  result: "50 to 75%"
- binder: "KPGPEDKL"
  valueKind: "peptide exchange yield"
  result: "20 to 50%"
- binder: "APRPASSL"
  valueKind: "peptide exchange yield"
  result: "50 to 75%"
- binder: "YPGLRGSPM"
  valueKind: "peptide exchange yield"
  result: "50 to 75%"
- binder: "TPLATTQRF"
  valueKind: "peptide exchange yield"
  result: "20 to 50%"
- binder: "TPLATTQRFTY"
  valueKind: "peptide exchange yield"
  result: "20 to 50%"
- binder: "RPRSPAGQVAA"
  valueKind: "peptide exchange yield"
  result: "50 to 75%"
